meta.source: PubChem BioAssay AID489003

Target: Broad substrate specificity ATP-binding cassette transporter ABCG2 (Homo sapiens)
Assay: blockade of ABCG2-mediated dye efflux – Ig-MXP3 cells, JC-1 substrate, flow cytometry, dose response (AID 489003);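 active = compounds whose weighted score, built from EC50 under 10 micromolar and fitted span over a set limit, tops 52; inactive = the rest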
Details: JC-1 efflux
Classes to choose from: active, inactive

What did the test return for `O=C(c1ccoc1)N1CCN(c2cc(-c3ccco3)nc3cc(-c4ccccc4)nn23)CC1` ?
active

Okay, and `Cc1occc1C(=O)N1CCN(c2cc(-c3ccco3)nc3cc(-c4ccccc4)nn23)CC1` ?
active

Okay, and `Cc1cc(N2CCN(C(=O)c3ccoc3)CC2)n2nc(-c3ccccc3)cc2n1` ?
active

###

Target: Broad substrate specificity ATP-binding cassette transporter ABCG2 (Homo sapiens) (UniProt Q9UNQ0)
Sequence (Q9UNQ0 whole entry, looked up): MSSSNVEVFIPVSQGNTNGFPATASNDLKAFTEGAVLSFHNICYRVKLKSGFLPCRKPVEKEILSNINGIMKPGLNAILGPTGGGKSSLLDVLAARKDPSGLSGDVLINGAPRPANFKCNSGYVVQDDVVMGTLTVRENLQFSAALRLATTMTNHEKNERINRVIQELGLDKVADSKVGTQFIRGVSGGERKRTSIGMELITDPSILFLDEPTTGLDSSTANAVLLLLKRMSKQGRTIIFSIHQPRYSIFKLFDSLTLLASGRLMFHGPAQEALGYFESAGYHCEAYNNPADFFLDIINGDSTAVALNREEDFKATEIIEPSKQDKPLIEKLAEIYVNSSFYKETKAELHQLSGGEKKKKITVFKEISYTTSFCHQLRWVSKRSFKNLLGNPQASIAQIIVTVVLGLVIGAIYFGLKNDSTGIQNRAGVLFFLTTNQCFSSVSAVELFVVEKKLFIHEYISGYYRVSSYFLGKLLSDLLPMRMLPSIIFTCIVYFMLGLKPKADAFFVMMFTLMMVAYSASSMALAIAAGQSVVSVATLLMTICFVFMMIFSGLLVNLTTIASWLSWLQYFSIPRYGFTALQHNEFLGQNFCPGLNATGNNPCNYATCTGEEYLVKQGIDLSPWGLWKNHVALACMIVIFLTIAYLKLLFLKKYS
Test: blockade of ABCG2-mediated dye efflux – Ig-MXP3 cells, JC-1 substrate, flow cytometry, dose response (AID 489003)
Conditions: JC-1 efflux
reported-endpoint: pEC50
// pEC50 is dimensionless: -log10 of concentration (M)

Item `COc1ccccc1-c1cc2nc(-c3ccco3)cc(N3CCN(C(=O)c4ccoc4)CC3)n2n1` has what recorded pEC50?
5.37

Okay, and `c1ccc(-c2cc3nc(-c4ccco4)cc(N4CCNCC4)n3n2)cc1` ?
5.16

Okay, and `COc1cccc(-c2cc3nc(-c4ccccc4)cc(N4CCN(C(=O)c5ccoc5)CC4)n3n2)c1` ?
5.72

Okay, and `COc1cccc(-c2cc3nc(C)c(C)c(N4CCN(C(=O)c5ccco5)CC4)n3n2)c1` ?
5.15

Okay, and `O=C(c1ccoc1)N1CCN(c2cc(-c3ccoc3)nc3cc(-c4ccccc4)nn23)CC1` ?
5.80
